Target: Bombyx mori EcR (VP16 fusion, CVBE switch construct) (Bombyx mori, UniProt P49881)
Sequence (P49881 86-606): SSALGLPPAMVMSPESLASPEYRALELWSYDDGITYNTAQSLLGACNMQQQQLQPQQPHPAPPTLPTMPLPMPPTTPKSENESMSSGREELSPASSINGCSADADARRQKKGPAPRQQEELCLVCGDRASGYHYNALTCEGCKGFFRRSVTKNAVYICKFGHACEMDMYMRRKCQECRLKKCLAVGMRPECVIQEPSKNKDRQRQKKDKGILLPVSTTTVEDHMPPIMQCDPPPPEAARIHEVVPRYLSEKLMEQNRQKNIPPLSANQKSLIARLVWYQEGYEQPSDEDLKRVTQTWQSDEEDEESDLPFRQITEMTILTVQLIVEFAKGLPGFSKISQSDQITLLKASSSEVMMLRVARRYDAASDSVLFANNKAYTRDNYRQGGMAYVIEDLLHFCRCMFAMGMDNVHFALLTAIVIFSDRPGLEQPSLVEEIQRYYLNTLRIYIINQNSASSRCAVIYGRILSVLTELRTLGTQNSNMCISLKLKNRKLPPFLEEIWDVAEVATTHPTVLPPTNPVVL
Sequence (P19793 whole entry partner, the tested form may be a part): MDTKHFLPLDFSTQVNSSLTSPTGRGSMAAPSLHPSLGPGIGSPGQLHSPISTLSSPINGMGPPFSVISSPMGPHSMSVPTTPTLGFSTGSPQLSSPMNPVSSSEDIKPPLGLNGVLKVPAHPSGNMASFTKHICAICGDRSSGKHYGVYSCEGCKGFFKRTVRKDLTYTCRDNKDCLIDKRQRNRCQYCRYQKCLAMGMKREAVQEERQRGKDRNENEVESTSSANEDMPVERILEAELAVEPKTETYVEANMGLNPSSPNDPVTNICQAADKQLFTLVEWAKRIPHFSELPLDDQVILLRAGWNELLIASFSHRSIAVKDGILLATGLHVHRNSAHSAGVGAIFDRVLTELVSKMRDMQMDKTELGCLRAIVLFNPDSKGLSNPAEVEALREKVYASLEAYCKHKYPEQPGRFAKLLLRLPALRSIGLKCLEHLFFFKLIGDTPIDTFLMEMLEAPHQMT
Test: Z3 Assay (HEK-293 cells with CVBE and 6XEcRE LacZ, β-galactosidase reporter)
Settings: 3.3 uM ligand; ligand treated / DMSO treated cells; average of two wells
Method: Dr. F. Gage provided a population of stably transformed cells containing CVBE and 6XEcRE as described in Suhr, S. T., Gil, E. B., Senut M. C., Gage, F. H. (1998) Proc. Natl. Acad. Sci. USA 95, 7999-804. […] Dilution cloning was used to isolate individual clones. […] Individual clones were evaluated based on their response in the presence and absence of test ligands. […]
# cutoff 300 applies to Fold Induction, Z3 Assay, 3.3 uM; >= gives 1 (yes), < gives 0 (no)

Reported Fold Induction, Z3 Assay, 3.3 uM at or above 300? CCc1ccc(C(=O)NN(C(=O)c2cccc(C)c2)C(C)(C)C)c(F)c1 [RG-115674]
1 (yes)

Moving on to COc1cnccc1C(=O)N(NC(=O)c1cccc(O)c1C)C(C)(C)C [RG-115595]
0 (no)

What about this compound? CCc1c(OC)cccc1C(=O)NN(C(=O)c1cc(C)cc(C)c1)C(C)(C)C=NCCO [RG-115511]
0 (no)

Continue with CCc1c(OC)cccc1C(=O)NN(C(=O)c1cc(C)cc(C=NNC(=O)C(N)=O)c1)C(C)(C)C [RG-115613]
1 (yes)

Entry CCc1c(OC)cccc1C(=O)NN(C(=O)c1cc(C)cc(C)c1)C(C)(C)CO [RG-115143] please
0 (no)

And for CCc1c(OC)cccc1C(=O)NN(C(=O)c1ccc(Cl)cc1[N+](=O)[O-])C(C)(C)C [RG-115647] ?
0 (no)

Can you handle CCc1c(OC)cccc1C(=O)NN(C(=O)c1cc(OC)c(O)c(OC)c1)C(C)(C)C [RG-115116] next?
0 (no)

Record: CCc1c(OC)cccc1C(=O)NN(C(=O)c1ccc(F)cc1)C(C)(C)C [RG-100812]
1 (yes)

----------
tested on: Caco-2 monolayers; assay: Bi-directional permeability, CACO-2; type: in vitro ADME; details: Caco-2
Readout type: Papp Blank

Consider the compound shown here: CCc1c(C(=O)NN(C(=O)c2ccc(F)c(C(F)(F)F)c2)C(C)(C)C)ccc2c1OCCO2 What is its recorded Papp Blank?
1.88 10^−6 cm/s

Same again, this time with CCCC(N(NC(=O)c1cccc(OC)c1C)C(=O)c1cc(C)cc(C)c1)C(C)(C)C (stereo not shown)
24.2 10^−6 cm/s

Moving on to CCc1c(OC)cccc1C(=O)NN(C(=O)c1ccccc1S(=O)(=O)O)C(C)(C)C
35.8 10^−6 cm/s

Another compound to check: CC(=O)c1ccc(C(=O)NN(C(=O)c2cc(C(=O)O)cc(C(=O)O)c2)C(C)(C)C)cc1
36.9 10^−6 cm/s

Repeat with CC(O)c1ccc(C(=O)NN(C(=O)c2cc(CO)cc(CO)c2)C(C)(C)C)cc1 (stereo not shown)
43.0 10^−6 cm/s

Further, for COc1cnccc1C(=O)N(NC(=O)c1cccc(O)c1C)C(C)(C)C ?
33.2 10^−6 cm/s

Next: CCc1c(OC)cccc1C(=O)NN(C(=O)c1ccccc1[S+](C)[O-])C(C)(C)C (stereo not shown)
23.0 10^−6 cm/s
